System: STAPHYLOCOCCUS AUREUS CMX 642A
Experiment: In vitro antibacterial activity, MIC, BHI agar dilution
Format: cell-based
Conditions: S. aureus CMX 642A, unit assumed
measurement_kind: MIC
# number then unit; no other words

Just so you know, measured MIC for CC[C@H]1OC(=O)[C@H](C)C(=O)[C@H](C)[C@@H](O[C@@H]2O[C@H](C)C[C@H](N(C)C)[C@H]2O)[C@](C)(OC)C[C@@H](C)C2=N[C@H](Cc3ccccc3)CN3C(=O)O[C@@]1(C)[C@H]3[C@H]2C came out at 0.39 µg/mL

Just so you know, measured MIC for CC[C@H]1OC(=O)[C@H](C)C(=O)[C@H](C)[C@@H](O[C@@H]2O[C@H](C)C[C@H](N(C)C)[C@H]2O)[C@](C)(OC)C[C@@H](C)C2=NC3CCCCC3N3C(=O)O[C@@]1(C)[C@H]3[C@H]2C (some centres unmarked) came out at 0.39 µg/mL

====

Test system: STREPTOCOCCUS PYOGENES EES61
Assay: In vitro antibacterial activity, MIC, BHI agar dilution
Type: cell-based
Conditions: S. pyogenes EES61, unit assumed
measurement_kind: MIC (µg/mL)
Enter your answer as a number in µg/mL; do not include the unit.

{"columns": ["molecule", "MIC / µg/mL"],
 "data": [
  ["CC[C@H]1OC(=O)[C@H](C)C(=O)[C@H](C)[C@@H](O[C@@H]2O[C@H](C)C[C@H](N(C)C)[C@H]2O)[C@](C)(OC)C[C@@H](C)C2=NC3CN(CCCc4ccccc4)CC3N3C(=O)O[C@@]1(C)[C@H]3[C@H]2C (some centres unmarked)", 0.02],
  ["CCC1OC(=O)C(C)C(=O)C(C)C(OC2OC(C)CC(N(C)C)C2O)C(C)(OC)CC(C)C2=NCC(C)(CN(C)C)N3C(=O)OC1(C)C3C2C (centres unmarked)", 0.1],
  ["CC[C@H]1OC(=O)[C@H](C)C(=O)[C@H](C)[C@@H](O[C@@H]2O[C@H](C)C[C@H](N(C)C)[C@H]2O)[C@](C)(OC)C[C@@H](C)C2=NC3CN(CC)CC3N3C(=O)O[C@@]1(C)[C@H]3[C@H]2C (some centres unmarked)", 0.05]
]}

Next molecule, MIC to be filled in.
The molecule CCC1OC(=O)C(C)C(=O)C(C)C(OC2OC(C)CC(N(C)C)C2O)C(C)(OC)CC(C)C2=NC(COCc3cc(OC)cc(OC)c3)CN3C(=O)OC1(C)C3C2C (centres unmarked) , when measured on STREPTOCOCCUS PYOGENES EES61, yielded MIC of 0.01

====

Tested on: KLEBSIELLA PNEUMONIAE ATCC 8045
Assay: In vitro antibacterial activity, MIC, BHI agar dilution
Format: cell-based
Conditions: K. pneumoniae ATCC 8045, unit assumed
measurement_kind: MIC

Worked cases, answers included:
{"columns": ["compound", "tested_on", "MIC"],
 "data": [
  ["CC[C@H]1OC(=O)[C@H](C)C(=O)[C@H](C)[C@@H](O[C@@H]2O[C@H](C)C[C@H](N(C)C)[C@H]2O)[C@](C)(OC)C[C@@H](C)C2=N[C@@H](COCc3ccncc3)CN3C(=O)O[C@@]1(C)[C@H]3[C@H]2C [Example 86]", "KLEBSIELLA PNEUMONIAE ATCC 8045", "> 100 µg/mL"],
  ["CC[C@H]1OC(=O)[C@H](C)C(=O)[C@H](C)[C@@H](O[C@@H]2O[C@H](C)C[C@H](N(C)C)[C@H]2O)[C@](C)(OC)C[C@@H](C)C2=NCC(COC(=O)c3ccccc3)N3C(=O)O[C@@]1(C)[C@H]3[C@H]2C (stereo partly shown) [Example 139]", "KLEBSIELLA PNEUMONIAE ATCC 8045", "100 µg/mL"],
  ["CCOC(=O)CCN1CC2N=C3C(C)CC(C)(OC)C(OC4OC(C)CC(N(C)C)C4O)C(C)C(=O)C(C)C(=O)OC(CC)C4(C)OC(=O)N(C2C1)C4C3C (stereo not shown) [Example 130]", "KLEBSIELLA PNEUMONIAE ATCC 8045", "> 100 µg/mL"]
]}

Next compound, MIC to be filled in.
Just so you know, measured MIC for CC[C@H]1OC(=O)[C@H](C)C(=O)[C@H](C)[C@@H](O[C@@H]2O[C@H](C)C[C@H](N(C)C)[C@H]2O)[C@](C)(OC)C[C@@H](C)C2=N[C@@H]3CN(Cc4ccc(Cl)cc4)C[C@@H]3N3C(=O)O[C@@]1(C)[C@H]3[C@H]2C [Example 24] came out at > 100 µg/mL

====

Test system: ESCHERICHIA COLI H560
Assay: In vitro antibacterial activity, MIC, BHI agar dilution
Assay type: cell-based
Conditions: E. coli H560, unit assumed
Below, each entry is listed alongside its reported MIC.
Enter your answer as a number in µg/mL; do not include the unit.

{"columns": ["compound", "tested_on", "MIC [µg/mL]"],
 "data": [
  ["CC[C@H]1OC(=O)[C@H](C)C(=O)[C@H](C)[C@@H](O[C@@H]2O[C@H](C)C[C@H](N(C)C)[C@H]2O)[C@](C)(OC)C[C@@H](C)C2=N[C@H](CN3CCOCC3)CN3C(=O)O[C@@]1(C)[C@H]3[C@H]2C [Example 95]", "ESCHERICHIA COLI H560", 50],
  ["CC[C@H]1OC(=O)[C@H](C)C(=O)[C@H](C)[C@@H](O[C@@H]2O[C@H](C)C[C@H](N(C)C)[C@H]2O)[C@](C)(OC)C[C@@H](C)C2=NC3CN(CCN(C)C)CC3N3C(=O)O[C@@]1(C)[C@H]3[C@H]2C (stereo partly drawn) [Example 129]", "ESCHERICHIA COLI H560", 50],
  ["CC[C@H]1OC(=O)[C@H](C)C(=O)[C@H](C)[C@@H](O[C@@H]2O[C@H](C)C[C@H](N(C)C)[C@H]2O)[C@](C)(OC)C[C@@H](C)C2=N[C@@H](C)[C@H](C)N3C(=O)O[C@@]1(C)[C@H]3[C@H]2C [Example 11]", "ESCHERICHIA COLI H560", 6.2],
  ["CC[C@H]1OC(=O)[C@H](C)C(=O)[C@H](C)[C@@H](O[C@@H]2O[C@H](C)C[C@H](N(C)C)[C@H]2O)[C@](C)(OC)C[C@@H](C)C2=NC[C@@H](CCCc3ccccc3)N3C(=O)O[C@@]1(C)[C@H]3[C@H]2C [Example 36]", "ESCHERICHIA COLI H560", 25],
  ["CC[C@H]1OC(=O)[C@H](C)C(=O)[C@H](C)[C@@H](O[C@@H]2O[C@H](C)C[C@H](N(C)C)[C@H]2O)[C@](C)(OC)C[C@@H](C)C2=NCC(COC(=O)c3ccc(Cl)cc3)N3C(=O)O[C@@]1(C)[C@H]3[C@H]2C (stereo partly drawn) [Example 141]", "ESCHERICHIA COLI H560", 12.5]
]}

Next compound, MIC to be filled in.
Just so you know, measured MIC for CC[C@H]1OC(=O)[C@H](C)C(=O)[C@H](C)[C@@H](O[C@@H]2O[C@H](C)C[C@H](N(C)C)[C@H]2O)[C@](C)(OC)C[C@@H](C)C2=NCC(CN(C)Cc3ccccc3)N3C(=O)O[C@@]1(C)[C@H]3[C@H]2C (stereo partly drawn) [Example 132] came out at 50

====

Tested on: STREPTOCOCCUS PYOGENES EES61
Assay: In vitro antibacterial activity, MIC, BHI agar dilution
Type: cell-based
Settings: S. pyogenes EES61, unit assumed
measurement_kind: MIC (µg/mL)
Enter your answer as a number in µg/mL; do not include the unit.

Worked cases, answers included:
{"columns": ["compound", "tested_on", "reading_unit", "MIC"],
 "data": [
  ["CC[C@H]1OC(=O)[C@H](C)C(=O)[C@H](C)[C@@H](O[C@@H]2O[C@H](C)C[C@H](N(C)C)[C@H]2O)[C@](C)(OC)C[C@@H](C)C2=NC3CN(CCc4ccccc4[N+](=O)[O-])CC3N3C(=O)O[C@@]1(C)[C@H]3[C@H]2C (stereo partly shown) [Example 119]", "STREPTOCOCCUS PYOGENES EES61", "µg/mL", 0.02],
  ["CC[C@H]1OC(=O)[C@H](C)C(=O)[C@H](C)[C@@H](O[C@@H]2O[C@H](C)C[C@H](N(C)C)[C@H]2O)[C@](C)(OC)C[C@@H](C)C2=NC[C@H](CO)N3C(=O)O[C@@]1(C)[C@H]3[C@H]2C [Example 63]", "STREPTOCOCCUS PYOGENES EES61", "µg/mL", 0.1]
]}

Just so you know, measured MIC for CC[C@H]1OC(=O)[C@H](C)C(=O)[C@H](C)[C@@H](O[C@@H]2O[C@H](C)C[C@H](N(C)C)[C@H]2O)[C@](C)(OC)C[C@@H](C)C2=NC3COCC3N3C(=O)O[C@@]1(C)[C@H]3[C@H]2C (stereo partly shown) [Example 108] came out at 0.1
